Data credit: PubChem BioAssay (EPA / NIEHS)

Read-out: Phosphatase and tensin (PTEN), PTEN (gene 5728)
Assay: LTEA_HepaRG_PTEN: Life Technologies and Expression Analysis (LTEA) Assay for Phosphatase and tensin (PTEN) using HepaRG (AID 2283523)
Conditions: mRNA level, 48 h; actives raise or lower the signal
Calls of active or inactive are those of the source. Rule for the calls: active = hit-call score of the fitted dose curve at least 0.9, where 1 is the maximum; inactive = score below 0.9.
// one of YES for active, NO for inactive, no free text

Completed entries (count: 10):
[
  {
    "compound": "CN(C)c1ccc(C(=O)c2ccc(N(C)C)cc2)cc1",
    "category.label": "NO"
  },
  {
    "compound": "Oc1ccc2ccc3cccc4ccc1c2c34",
    "category.label": "NO"
  },
  {
    "compound": "[O-][Cl+]O",
    "category.label": "NO"
  },
  {
    "compound": "c1ccc(N=Nc2ccccc2)cc1",
    "category.label": "NO"
  },
  {
    "compound": "Brc1ccc(Oc2ccccc2)cc1",
    "category.label": "NO"
  },
  {
    "compound": "CN(C)[C@@H]1C(=O)C(C(N)=O)=C(O)[C@@]2(O)C(=O)C3=C(O)c4c(O)cccc4[C@@](C)(O)[C@H]3C[C@@H]12",
    "category.label": "NO"
  },
  {
    "compound": "CCNS(=O)(=O)C(F)(F)C(F)(F)C(F)(F)C(F)(F)C(F)(F)C(F)(F)C(F)(F)C(F)(F)F",
    "category.label": "NO"
  },
  {
    "compound": "CCC[CH2][Sn]([Cl])([CH2]CCC)[CH2]CCC",
    "category.label": "NO"
  },
  {
    "compound": "CC(C)(C)C(O)(CCc1ccc(Cl)cc1)Cn1cncn1 (configuration not stated)",
    "category.label": "NO"
  },
  {
    "compound": "Nc1ccc(Cl)cc1N",
    "category.label": "YES"
  }
]

Tell me the assay call for CC(C)(C)OOC(C)(C)CCC(C)(C)OOC(C)(C)C please.
NO

Tell me the assay call for CCOC(=O)[C@]1(c2ccccc2)Oc2ccccc2[C@@H]1N please.
NO

###

Target: Cellular tumor antigen p53 (Homo sapiens)
Test: TOX21_p53_BLA_p3_ratio: Tox21 HCT-116 p53 Agonism Beta-lactamase Assay, Ratio, Phase 3 (AID 2283596)
Inconclusive results are not listed. The source made the active and inactive calls. Rule for the calls: active = hit-call score of the fitted dose curve at least 0.9, where 1 is the maximum; inconclusive = response in the unintended direction; inactive = score below 0.9.
// one of active, inactive, no free text

Tell me the assay call for O=C(O)C1C2CCC(O2)C1C(=O)O (stereo unspecified) please.
inactive

Tell me the assay call for CO[C@@H]1[C@H](OC(=O)NC(=O)CCl)CC[C@]2(CO2)[C@H]1[C@@]1(C)O[C@@H]1CC=C(C)C please.
inactive

Tell me the assay call for O=Cc1ccco1 please.
inactive

Tell me the assay call for COc1cc(C=O)cc2c1[C@H](COC(N)=O)[C@]1(OC(C)=O)ON2C[C@H]2[C@@H]1N2C(C)=O please.
active

Tell me the assay call for Nc1ccc(Oc2ccc(N)cc2)cc1 please.
inactive

###

Read-out: Pro-epidermal growth factor (Homo sapiens)
Assay: LTEA_HepaRG_EGF: Life Technologies and Expression Analysis (LTEA) Assay for Epidermal growth factor (EGF) using HepaRG (AID 2283489)
Conditions: mRNA level, 48 h; actives raise or lower the signal
Activity calls are given as the source filed them. The calls were made as follows: active = hit-call score of the fitted dose curve at least 0.9, where 1 is the maximum; inactive = score below 0.9.
// one of active, inactive, no free text

Tell me the assay call for Cc1ccc(N)cc1 please.
inactive

Tell me the assay call for N#CC(Br)(Br)C(N)=O please.
inactive

Tell me the assay call for CCC12COCN1COC2 please.
inactive

Tell me the assay call for Clc1ccc(C(c2ccc(Cl)cc2)C(Cl)(Cl)Cl)cc1 please.
inactive

Tell me the assay call for O=C(Oc1ccc(Br)cc1)N1CCN2CCC1CC2 please.
inactive

Tell me the assay call for c1ccc(N=Nc2ccccc2)cc1 please.
inactive

Tell me the assay call for COP(=S)(OC)SCN1C(=O)c2ccccc2C1=O please.
inactive
